Values from patent US12697325B2

assay: Pharmacokinetics in plasma and bronchoalveolar lavage fluid of female CD-1 mice; assay type: in vivo; conditions: mouse; female CD-1 mice, intravenous dripping 150 mg/kg, plasma; read-out: Tmax, plasma
RESULT_TYPE: Tmax (h)
Answer format: numeric, h implied, no suffix.

Need Tmax, item CC1(C)[C@H](C(=O)[O][Na+])N2C(=O)C[C@H]2S1(=O)=O [Sulbactam sodium, sulbactam sodium]
1

* * *

assay: Pharmacokinetics in plasma and bronchoalveolar lavage fluid of female CD-1 mice; format: in vivo; conditions: female, CD-1, mouse, BALF/plasma, intravenous, 25 mg/kg; 0.50 h; read-out: BALF/plasma ratio Mean
RESULT_TYPE: Kp at 0.5 h
Give only the figure.

Need Kp at 0.5 h, item NC(=O)[C@@H]1CC[C@@H]2CN1C(=O)N2OS(=O)(=O)O
0.0474

* * *

test: Pharmacokinetics in plasma and bronchoalveolar lavage fluid of female CD-1 mice; format: in vivo; conditions: female, CD-1, mouse, BALF/plasma, intravenous, 150 mg/kg; 8.00 h; read-out: BALF/plasma ratio Mean
RESULT_TYPE: Kp at 8 h
Give only the figure.

Need Kp at 8 h, item NC(=O)[C@@H]1CC[C@@H]2CN1C(=O)N2OS(=O)(=O)O
0.211

* * *

assay: Pharmacokinetics in plasma and bronchoalveolar lavage fluid of female CD-1 mice; format: in vivo; settings: female, CD-1, mouse, BALF/plasma, intravenous, 150 mg/kg; 5.00 h; read-out: BALF/plasma ratio Mean
RESULT_TYPE: Kp at 5 h
Give only the figure.

Need Kp at 5 h, item NC(=O)[C@@H]1CC[C@@H]2CN1C(=O)N2OS(=O)(=O)O [Avibactam]
0.153

* * *

assay: Pharmacokinetics in plasma and bronchoalveolar lavage fluid of female CD-1 mice; format: in vivo; conditions: mouse, BALF/plasma, intravenous, 150 mg/kg; female CD-1 mice, BALF column; read-out: AUC Ratio
RESULT_TYPE: Kp

Need Kp, item CC1(C)[C@H](C(=O)[O][Na+])N2C(=O)C[C@H]2S1(=O)=O [Sulbactam sodium, sulbactam sodium]
0.0248

* * *

assay: Pharmacokinetics in plasma and bronchoalveolar lavage fluid of female CD-1 mice; type: in vivo; settings: female, CD-1, mouse, plasma; 1.00 h; 150 mg/kg intravenous dripping; read-out: Plasma concentration Mean ± SD
RESULT_TYPE: concentration at 1 h

Need concentration at 1 h, item NC(=O)[C@@H]1CC[C@@H]2CN1C(=O)N2OS(=O)(=O)O
18800 ng/mL

* * *

tested on: Acinetobacter baumannii clinical strains; assay: Information of drug resistance of 10 clinical strains; assay type: cell-based; parameters: key: S: Drug Susceptible; I: Drug Intermediate; R: Drug Resistant; conditions: strain TNP041708
RESULT_TYPE: Drug resistance

| MOLECULE | REPORTED_RESULT |
| --- | --- |
| C[C@@H](O)[C@H]1C(=O)N2C(C(=O)O)=C(SCCN=CN)C[C@H]12 [Imipenem] | R |
| C[C@@H](O)[C@H]1C(=O)N2C(C(=O)O)=C(S[C@@H]3CN[C@H](C(=O)N(C)C)C3)[C@H](C)[C@H]12 [Meropenem] | R |
| CO/N=C(\C(=O)N[C@@H]1C(=O)N2C(C(=O)O)=C(COC(C)=O)CS[C@H]12)c1csc(N)n1 [Cefotaxime] | R |
